Reference source: PubChem BioAssay

# ASSAY SUMMARY: viability profiling in MM1S myeloma cells – cell-based, resazurin fluorescence, basal, 24 h, PK04 Diversity Set, profiling panel (AID 1174);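 note: MM1S multiple myeloma cell line; test concentration not given here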
# EXPERIMENTAL CONDITIONS: higher = more signal, called active from +8 up or from −8 down
Returns MET if the recorded z-score is greater than or equal to -0.5, and NOT MET otherwise.

# example entries with known answers
COMPOUND	CLASS NAME
O=C1[C@H]2C=C(Br)[C@H](C[C@@H]2OCCOCCO)[C@@]12CO2	MET
O=C1c2ccccc2[C@](Cc2ccccc2I)(C(=O)O)[C@H](c2ccc(CO)cc2)N1Cc1ccccc1C(F)(F)F	MET
CC(C)N1C(=O)c2ccccc2[C@](C)(C(=O)NCCCN(C)C)[C@@H]1c1ccc(CO)cc1	MET

Could you verify whether the entry CCN(CC)c1ccc(N2CC=CC34O[C@@H]5/C=C\CCC(C)OC(=O)C5[C@H]3C(=O)N(CCCCCCO)[C@@H]4C2=O)cc1 (some centres undefined) shows z-score of no less than -0.5?
MET

Could you verify whether the entry `CCCC[C@@H]1C[C@H]1[C@@H](NC(=O)c1ccccc1)c1ccccc1` shows z-score of no less than -0.5?
NOT MET

Could you verify whether the entry CS(=O)(=O)CCOC(=O)C1=CC(c2ccc(CO)cc2)=CC(c2cccs2)N(Cc2cccc(OC(F)(F)F)c2)C=C1C(=O)OCCS(C)(=O)=O (centres undefined) shows z-score of no less than -0.5?
NOT MET

Could you verify whether the entry `O=C1O[C@@H](c2ccccc2)[C@@H](c2ccccc2)N2[C@@H](c3ccc(O)cc3)[C@]3(C(=O)Nc4ccc(C#CCCO)cc43)[C@@H](C(=O)O)[C@H]12` shows z-score of no less than -0.5?
MET

Could you verify whether the entry CC1CC/C=C\[C@H]2OC34C=CCN(CCN5CCOCC5)C(=O)[C@H]3N(CCCCCO)C(=O)[C@@H]4C2C(=O)O1 (some centres undefined) shows z-score of no less than -0.5?
MET

Could you verify whether the entry `CN(C)CCCC[C@@H]1NC(=O)[C@H]2C[C@@H](C(=O)NCCCCCNC(=O)CS)[C@@H](c3ccc(O)cc3)N2C1=O` shows z-score of no less than -0.5?
MET

Could you verify whether the entry CC(C)(C)OC(=O)CC[C@]1(C(=O)NCC(O)CO)N=C(c2ccc(OCCCO)cc2)O[C@H]1c1ccccc1CN=[N+]=[N-] (some centres undefined) shows z-score of no less than -0.5?
NOT MET

Could you verify whether the entry `O=C(NCc1ccccc1)[C@@H]1c2ccccc2C(=O)N(C2CCCCC2)[C@H]1c1ccc(CO)cc1` shows z-score of no less than -0.5?
NOT MET

Could you verify whether the entry COCC1C2CC[C@H]3C(OCc4ccc(F)cc4C(F)(F)F)OC[C@]4(C)[C@H]3C2=C(CN4C(=O)OC(C)(C)C)[C@H](C)C1COC (some centres undefined) shows z-score of no less than -0.5?
MET

Could you verify whether the entry `Cc1ccc(N2C(=O)c3ccccc3[C@@H](C(=O)NC(C)C)[C@@H]2c2ccc(CO)cc2)nc1` shows z-score of no less than -0.5?
MET

Could you verify whether the entry `COC(=O)[C@@]1(Cc2ccc(F)cc2)[C@H]2c3cc(C(=O)N(C)C)n(Cc4ccccn4)c3C[C@H]2CN1C(=O)c1ccccc1` shows z-score of no less than -0.5?
MET

Could you verify whether the entry `O=C(CS)NCCCCCCNC(=O)[C@H]1C[C@H]2C(=O)N3CCC[C@H]3C(=O)N2[C@H]1c1ccc(O)cc1` shows z-score of no less than -0.5?
NOT MET

Could you verify whether the entry CC(c1ccccc1)C(O)C1C=CC2C(=O)N(c3ccccc3)C(=O)C2N1Nc1ccccc1F (centres undefined) shows z-score of no less than -0.5?
MET

Could you verify whether the entry `C=CCOC(=O)[C@H]1[C@@H]2C(=O)O[C@@H](c3ccccc3)[C@@H](c3ccccc3)N2[C@@H](c2ccc(OCCOC(=O)[C@@H]3C[C@@H]4C(=O)NCC(=O)N4[C@@H]3c3ccc(O)cc3)cc2)[C@]12C(=O)Nc1ccc(I)cc12` shows z-score of no less than -0.5?
NOT MET

Could you verify whether the entry CN1C(=O)C2C(C1=O)C1C=C(c3ccc(CO)cc3)C2C(C2CC2)N1Cc1sc2ccccc2c1Cl (centres undefined) shows z-score of no less than -0.5?
NOT MET

Could you verify whether the entry `CCCNC(=O)[C@@]1(C)c2ccccc2C(=O)N(Cc2cc(F)cc(C(F)(F)F)c2)[C@H]1c1ccc(CO)cc1` shows z-score of no less than -0.5?
MET

Could you verify whether the entry `COCCOC(=O)N1C(=O)[C@@]2(c3cc(C#CC4(O)CCCCCC4)ccc31)[C@H](c1ccc(O)cc1)N1[C@H](c3ccccc3)[C@H](c3ccccc3)OC(=O)[C@H]1[C@@H]2C(=O)N1CCc2cc(OC)c(OC)cc2C1` shows z-score of no less than -0.5?
MET

====

# ASSAY SUMMARY: probe aEGFR binding to arrayed compounds – biochemical, biotinylated probe, 635/667 nm fluorescence, primary screen (AID 1097);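 note: probe is a biotinylated anti-EGFR antibody binding compounds printed on slides; score combines fluorescence near 667 nm and signal to noise of each spot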
# EXPERIMENTAL CONDITIONS: small-molecule microarray, higher = more signal
OBSERVABLE: composite z-score
Lab note: record just the number, no unit beside it.

Field: example entries. Status: answers known.
COMPOUND	composite z-score
Cc1ccc(F)cc1S(=O)(=O)N[C@@H]1CCN(Cc2ccc(C(F)(F)F)cc2)C1	-0.218
C=C[C@H](OC)[C@@H](OC(=O)Nc1ccc(SC)cc1)c1ccc(OCCO)cc1	0.507
COCCOC(=O)N1C(=O)[C@@]2(c3cc(C#CCC(C(=O)OC)C(=O)OC)ccc31)[C@H](c1ccccc1OCCO)N1[C@H](c3ccccc3)[C@H](c3ccccc3)OC(=O)[C@H]1[C@@H]2C(=O)Nc1nc2ccccc2s1	0.0632

According to the records, this compound `CCCCCCC#C[Si](O[C@H](c1ccccc1)c1cn([C@H](C)c2ccccc2)nn1)(C(C)C)C(C)C` displays composite z-score of -0.099

According to the records, this compound O=C1OCCC=C[C@H]2OC34C=CCN(CCN5CCOCC5)C(=O)[C@H]3N(CCO)C(=O)[C@@H]4C12 (some centres not stated) displays composite z-score of -0.23

According to the records, this compound `CC(C)CNC(=O)[C@@]1(C)c2ccccc2C(=O)N(C(C)C)[C@H]1c1ccc(CO)cc1` displays composite z-score of 0.0744

According to the records, this compound C=CCC(OC(C)=O)[C@@H]1[C@@H](N(Cc2ccc(-c3cccc(C(F)(F)F)c3)o2)C(=O)c2ccc(C)cc2)c2cc(OCCCO)ccc2N1C(=O)c1ccc2ccccc2n1 (some centres not stated) displays composite z-score of -0.147

====

# ASSAY SUMMARY: optical density shifts of acrAB sulA E. coli – strain DRC41, OD650, 48 h, E. coli filamentation inducer project, primary screen (AID 1152);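 note: E. coli MC1000 strain DRC41 lacking acrAB efflux pump and sulA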
# EXPERIMENTAL CONDITIONS: higher = more signal, called active from +8 up or from −8 down
Returns criterion met if the recorded z-score is greater than or equal to -0.4, and criterion not met otherwise.

# example entries with known answers
MOLECULE	CLASS NAME
C=CCOC(=O)[C@H]1[C@@H]2C(=O)O[C@@H](c3ccccc3)[C@@H](c3ccccc3)N2[C@@H](c2ccc(OCCOC(=O)[C@H]3C[C@H]4C(=O)N[C@@H](CCCC[N+](C)(C)C)C(=O)N4[C@H]3c3ccc(O)cc3)cc2)[C@]12C(=O)Nc1ccccc12	criterion met
CN1C(=O)C2C=CC(C(O)c3ccc(Br)cc3)N(Nc3ccccc3)C2C1=O (configuration not stated)	criterion not met
O=C1c2ccccc2[C@@]2(Cc3ccccc3N(Cc3ccccc3)C2=O)[C@H](c2ccc(CO)cc2)N1Cc1ccccc1C(F)(F)F	criterion met

Could you verify whether the entry `C=CC[C@@]1(C(=O)OC)N=C(c2ccc(OCCCO)cc2)O[C@@H]1c1ccccc1CN=[N+]=[N-]` shows z-score of no less than -0.4?
criterion met

Could you verify whether the entry `C=C[C@H](OC)[C@@H](OC(=O)Nc1ccc(SC)cc1)c1ccc(OCCO)cc1` shows z-score of no less than -0.4?
criterion met

Could you verify whether the entry `O=C1O[C@@H](c2ccccc2)[C@@H](c2ccccc2)N2[C@@H](c3ccccc3OCCO)[C@]3(C(=O)Nc4ccc(C#CC5(O)CCCCCC5)cc43)[C@@H](C(=O)NC[C@H](O)c3ccccc3)[C@H]12` shows z-score of no less than -0.4?
criterion not met

====

# ASSAY SUMMARY: compound effects on lung adenocarcinoma cell viability – A549, calcein-AM fluorescence, 48 h, basal, profiling panel (AID 1162); note: test concentration not given here
# EXPERIMENTAL CONDITIONS: higher = more signal
OBSERVABLE: z-score
Lab note: record just the number, no unit beside it.

Field: example entries. Status: answers known.
                                   compound  observable  value_reported
0  O=C1OCC=C[C@H]2OC34C=CCN(c5ccc(Cl)cc5)C(=O)[C@H]3N(CCCO)C(=O)[C@@H]4[C@@H]12 (some centres undefined)     z-score         -0.0108
1  Cc1c(NC(=O)/C(C#N)=C/C=C/c2ccccc2)c(=O)n(-c2ccccc2)n1C     z-score          -0.864
2  CCCNC(=O)[C@@]1(C)c2ccccc2C(=O)N(C(C)C)[C@H]1c1ccc(CO)cc1     z-score           -0.23

# next compound below
According to the records, this compound `CCCC[C@H]1OB(O)C[C@H]2C1=C(COc1ccccc1)C[C@H]1C(=O)N(Cc3ccccc3)C(=O)[C@H]12` displays z-score of 0.358
